assay: Biodistribution of 177Lu-labeled αMSH analogues in mice bearing B16F10 mouse melanoma; format: in vivo, C57BL/6J mice; conditions: mouse, muscle, iv, total radioactivity; 1 h p.i., C57BL/6J mice, B16F10 melanoma; read-out: Biodistribution, Muscle
Recorded Endpoint: tissue uptake at 1 h (%ID/g)
Lab book: enter the figure in %ID/g, no units written.

Compound	Endpoint Value
CCCC[C@H](NC(=O)CN1CCC(NC(=O)[C@H](CCCCNC(=O)CN2CCN(CC(=O)O)CCN(CC(=O)O)CCN(CC(=O)O)CC2)NC(=O)[C@H](CCC(=O)O)NC(=O)CCCc2ccc(I)cc2)CC1)C(=O)N[C@H]1CC(=O)NCCCC[C@@H](C(N)=O)N(C)C(=O)[C@H](Cc2c[nH]c3ccccc23)NC(=O)[C@H](CCCNC(=N)N)N(C)C(=O)[C@@H](Cc2ccccc2)NC(=O)[C@H](Cc2c[nH]cn2)NC1=O [^177Lu-labeled CCZ01118, metal not drawn]	0.75
CCCC[C@H](NC(=O)CN1CCC(NC(=O)CN2CCN(CC(=O)O)CCN(CC(=O)O)CCN(CC(=O)O)CC2)CC1)C(=O)N[C@H]1CC(=O)NCCCC[C@@H](C(N)=O)N(C)C(=O)[C@H](Cc2c[nH]c3ccccc23)N(C)C(=O)[C@H](CCCNC(=N)N)N(C)C(=O)[C@@H](Cc2ccccc2)NC(=O)[C@H](Cc2c[nH]cn2)N(C)C1=O [^177Lu-labeled CCZ01099, metal not drawn]	0.1

API: the following record is the query input.
**Q:** # tissue uptake at 1 h lookup, item CCCC[C@H](NC(=O)CN1CCC(NC(=O)CN2CCN(CC(=O)O)CCN(CC(=O)O)CCN(CC(=O)O)CC2)CC1)C(=O)N[C@H]1CC(=O)NCCCC[C@@H](C(N)=O)N(C)C(=O)[C@H](Cc2c[nH]c3ccccc23)NC(=O)[C@H](CCCNC(=N)N)N(C)C(=O)[C@@H](Cc2ccccc2)NC(=O)[C@H](Cc2c[nH]cn2)NC1=O [^177Lu-labeled CCZ01106, metal not drawn]
**A:** 0.12

Origin of the recorded values: patent US11395857B2
